Kindly state GI50 for each of the entries shown.
System: EKVX NSCLC
Experiment: NCI tumour cell line growth inhibition, 48 h

Request: Kindly indicate its recorded GI50. Item: Cl.Fc1c[c-]c(-c2ccccn2)c(F)c1.[Pt].c1ccc(P(c2ccccc2)C([PH+](c2ccccc2)c2ccccc2)[PH+](c2ccccc2)c2ccccc2)cc1
Result: 3.1 µM

Request: Return GI50 (reported value) for this molecule: O=[N+]([O-])c1ccccc1N/N=C\c1c[nH]c2ccccc12
Result: 2.49 µM

Request: Output measured GI50 for this item: COC(=O)[C@]12CC[C@@H](C)[C@H](C)[C@@H]1C1=CC[C@@H]3[C@@]4(C)C(C=O)=C[C@@](C)(COC(C)=O)C4=CC[C@@]3(C)[C@]1(C)CC2
Result: 4.13 µM

Request: Assign GI50 to the following record: NC(N)=N/N=C/c1c(-c2cc(Cl)sc2Cl)nc2sccn12
Result: 3.72 µM

Request: Give me measured GI50, please, for this molecule: CN(C)c1ccc(N=C2C=CC(=[N+](C)C)C=C2)cc1
Result: 3.58 µM

Request: Identify measured GI50 associated with COc1cc(-c2nc3ccccc3s2)ccc1NC(=O)COc1ccc(Cl)cc1
Result: 8.67 µM

Request: Retrieve GI50 measured for CCOC(=O)c1c(C)n2c(=O)cc(C)c3c(O)c(O)cc1c32 and print it.
Result: 20.8 µM

Request: Dear colleague, please send me the reported GI50 for C=C(C)[C@@H]1CC[C@]2(C(=O)O)CC[C@]3(C)[C@H](CC[C@@H]4[C@@]5(C)C[C@@H](CC#Cc6ccc(C(F)(F)F)cc6)[C@H](O)C(C)(C)[C@@H]5CC[C@]43C)[C@@H]12 when you can.
Result: 3.82 µM

Request: State its GI50 for this molecule: O=[N+]([O-])c1ccc(Sc2ncnc3nc[nH]c23)c2nonc12
Result: 18.1 µM

---

System: T-47D breast
Test: NCI tumour cell line growth inhibition, 48 h
OUTCOME_MEASURE: TGI

Request: Recall and state the measured TGI for C/C(=C\CCc1ccoc1)CC/C=C(\C)CCCN1CCOCC1 .
Result: 13.1 µM

Request: For the compound COc1cc(C2C(C#N)=C(N)OC3=C2CCS(=O)(=O)c2ccc(C)cc23)cc(OC)c1OC (centres undefined) , report TGI.
Result: > 100 µM

Request: Give the measured TGI for O=C(N=Nc1cccc(Cl)c1)NNc1cccc(Cl)c1
Result: > 100 µM

Request: Tell us which TGI value is on record for CC1=C/C(=N\O)C(C(O)(C(F)(F)F)C(F)(F)F)C(C)(C)C1 (centres undefined)
Result: > 10 µM

Request: Give me measured TGI, please, for this compound: CO/N=C(\C(=O)N(C)n1cnnc1)c1csc(NC(c2ccccc2)(c2ccccc2)c2ccccc2)n1
Result: > 10 µM

Request: Give recorded TGI. Cc1ccc(Nc2c(C#N)[n+]([O-])c3cc(Cl)ccc3[n+]2[O-])cc1
Result: > 100 µM

Request: Quote TGI reported for C[C@]12CC/C(=N\O)C=C1CC[C@@H]1[C@@H]2CC[C@]2(C)C(=N/O)/C(=C/c3ccc([N+](=O)[O-])cc3)C[C@@H]12 please.
Result: 3.69 µM

Request: Using the record for COC(CC1(/C=C/O[Si](C(C)C)(C(C)C)C(C)C)C(=O)N(C)c2ccccc21)OC (centres undefined) , state its measured TGI.
Result: > 100 µM

Request: For the compound C=CC(C1=CC(=O)C(OC)=CC1=O)c1ccccc1 (centres undefined) , give its reported TGI.
Result: 8.9 µM

---

Test system: TK-10 renal
Assay: NCI tumour cell line growth inhibition, 48 h
So I've got a bunch of compounds here, and I need their TGI values.
// return numeric value only (unit: µM, not printed)

Request: Identify measured TGI associated with c1cc2[nH]ncc2cc1-c1nc2ccc3[nH]ncc3c2c2c1CCCC2
Result: 21.8

Request: Specify measured TGI for CC(=O)OC/C=C\Cn1nc(Br)c(=O)[nH]c1=O .
Result: 38.2

Request: Specify reported TGI for the compound shown: O=C1C(=O)c2c(nc3ccc(Br)cn23)-c2ccccc21
Result: 3.78

---

System: NCI-H226 lung
Test: NCI tumour cell line growth inhibition, 48 h
OUTCOME_MEASURE: TGI

Request: Tell me TGI reported for CNC(=O)OCc1c2ccncc2c(C)c2c1[nH]c1ccccc12
Result: 1.25 µM

Request: Please give measured TGI of the following entry: CNCc1cc(OC)ccc1-c1ccc(OC)c(OC)c1OC
Result: > 100 µM

Request: For COc1cc(C2C(C#N)=C(N)OC3=C2CCS(=O)(=O)c2ccc(C)cc23)cc(OC)c1OC (stereo not given) , write its TGI.
Result: > 100 µM

Request: # return recorded TGI for input COC(=O)C(Cc1cc(OC)c(OC)c(OC)c1)c1ccc(OC)cc1 (stereo not given)
Result: > 100 µM

Request: Retrieve TGI measured for CCOC(=O)CSc1nnc2cc(CN3CCCC3)c(-c3ccc(Cl)cc3)nn12 and print it.
Result: > 100 µM

Request: Give the reported TGI for this compound. COc1cc(S(=O)(=O)Nc2ccc(-c3csc(N)n3)cc2)ccc1Cl
Result: 77.5 µM

Request: Return value of TGI for input Cc1ccc(-c2cc(C(F)(F)F)nn2-c2ccc(S(N)(=O)=O)cc2)cc1 , no commentary.
Result: > 100 µM

Request: Determine from records and report TGI for C=C(C)[C@H]1C=C[C@@H](OC(=O)c2cccnc2)[C@@]23CO[C@@](C)([C@H](OC(=O)c4cccnc4)[C@@]4(OC(C)=O)C[C@H](C)[C@H](OCCC)[C@@H]4[C@H]2OC(C)=O)[C@H]13
Result: > 15 µM

Request: Recall and state the measured TGI for Clc1cc(Cl)cc(C2ON=C(c3ccccc3)N2C23CC4CC(CC(C4)C2)C3)c1 (stereo not given) .
Result: > 10 µM

Request: Kindly indicate its recorded TGI. Item: CC1SC2=NC3=C(c4ccccc4C3=O)C(c3ccc(Cl)cc3)N2C1=O (stereo not given)
Result: > 100 µM

Request: Fill in TGI for record CCc1n[nH]c(=O)n1/N=C/c1ccc(C)cc1
Result: > 100 µM

Request: Quickly give me recorded TGI for CNC(=O)SCC(N)C(=O)O (stereo not given)
Result: > 100 µM

Request: Kindly indicate its recorded TGI. Item: CC1CC[C@@]2(OC1)OC1CC3C4CCC5C[C@@H](OC6OC(CO)C(OC7OC(CO)C(O)C(OC8OC(CO)C(O)C(OC9OC(CO)C(O)C(O)C9O)C8O)C7OC7OC(CO)C(O)C(O)C7O)C(O)C6O)[C@H](O)C[C@]5(C)C4CC[C@]3(C)C1[C@@H]2C (stereo not given in full)
Result: > 80.5 µM

Request: Name the recorded TGI of the compound listed here: S=C1CC(c2ccccc2)Sc2ccccc2N1 (stereo not given)
Result: > 100 µM

Request: Return the recorded TGI value; entry: NC(=S)N/N=C1\NC(=O)/C(=C/c2ccc3c(c2)OCO3)S1
Result: 78.7 µM

Request: Tell me measured TGI for Cc1ccc(N=Nc2ccc(O)c(CN(C)C)c2)cc1 please.
Result: 49.4 µM

Request: Identify measured TGI corresponding to CN(C)S(=O)(=O)/N=C/c1cccc(/C=N/S(=O)(=O)N(C)C)c1
Result: > 100 µM

Request: Give the measured TGI for COc1ccc2cc(C(=O)O)ccc2c1OC
Result: > 100 µM

Request: Supply measured TGI of CCN(CC)c1ccc2cc(C(=O)Nc3ccccc3)c(=N)oc2c1 in your reply.
Result: > 100 µM

Request: Identify TGI associated with the compound CC1(C)Cc2c(C#N)c(N)c3c(c2CO1)C(=O)OC3=O
Result: > 100 µM

---

Tested on: SF-268 CNS
Experiment: NCI tumour cell line growth inhibition, 48 h
OUTCOME_MEASURE: TGI

Request: Look up and report TGI, with SF-268 CNS as system, for O=C1C(=O)c2c(nc3ccc(Br)cn23)-c2ccccc21
Result: 1.97 µM

Request: Lab note: record TGI of NNC(=O)CNC(=O)c1ccc(Cl)cc1Cl tested on SF-268 CNS.
Result: > 100 µM

Request: Give TGI for Cl.Fc1c[c-]c(-c2ccccn2)c(F)c1.[Pt].c1ccc(P(c2ccccc2)C([PH+](c2ccccc2)c2ccccc2)[PH+](c2ccccc2)c2ccccc2)cc1 tested on SF-268 CNS.
Result: 25.1 µM

Request: Enter measured TGI, system SF-268 CNS, for the compound shown: Cc1ncc2c(=O)c3c(oc2n1)c1ccccc1n3Cc1ccccc1
Result: > 100 µM

Request: Jot down TGI (SF-268 CNS) of COc1ccc(C(SCC(N)C(=O)O)(c2ccccc2)c2ccccc2)cc1 (configuration not stated) .
Result: 71.5 µM

Request: Supply TGI measured with SF-268 CNS for COC(=O)[C@]12CC[C@@H](C)[C@H](C)[C@@H]1C1=CC[C@@H]3[C@@]4(C)C(C=O)=C[C@@](C)(COC(C)=O)C4=CC[C@@]3(C)[C@]1(C)CC2 .
Result: 17 µM

Request: State recorded TGI with SF-268 CNS, entry CN(NC(=O)c1cccs1)C1=NCCCCN1 , no comment.
Result: > 100 µM

Request: Report TGI under test system SF-268 CNS for CCCCC(Sc1cc(Cl)c(C)cc1S(=O)(=O)Nc1n[nH]c(N)n1)C(=O)OC (configuration not stated) .
Result: > 10 µM

Request: Name the recorded TGI of CN(N)c1cc(=O)[nH]c(=O)[nH]1 , assay system SF-268 CNS.
Result: > 100 µM

Request: # assay system SF-268 CNS: give TGI of O=C(Nc1ccccc1)N(C1=NCC(CI)S1)c1ccc(F)cc1F (configuration not stated)
Result: > 100 µM

Request: Report its TGI with SF-268 CNS as the test system: CCOC(=O)c1c(Cl)nc2ccccc2c1N=[N+]=[N-]
Result: 30.5 µM

Request: GET TGI | system: SF-268 CNS | item: c1ccc([P+](Cc2ccccc2C[P+](c2ccccc2)(c2ccccc2)c2ccccc2)(c2ccccc2)c2ccccc2)cc1
Result: > 100 µM

Request: Param request: TGI | system SF-268 CNS | item C=C[C@@H]1C[C@]2(C(=O)OC)Cc3nc4ccccc4nc3CC(C(=O)OC)=C2O1
Result: > 100 µM

Request: GET TGI where system = SF-268 CNS and item = O=c1oc2ccccc2c(O)c1/C=N/C(=S)NCCc1ccccc1
Result: > 100 µM

Request: GET TGI | system: SF-268 CNS | item: Cc1nnc2sc(NN)nn12
Result: > 100 µM

Request: Fill: TGI (SF-268 CNS) for this compound CCCC(=O)NC1CCc2cc(OC)c(OC)c(OC)c2-c2ccc(OC)c(=O)cc21 (configuration not stated)
Result: > 100 µM

Request: Report the value of TGI obtained on SF-268 CNS for COc1cccc2c1OC(c1ccc(C#N)cc1)C([N+](=O)[O-])=C2 (configuration not stated) .
Result: 16.1 µM

Request: Send back SF-268 CNS TGI of CC1C[C@H](C)CC(C(O)CC2CC(=O)N(Cc3ccccc3)C(=O)C2)C1O (some centres not stated) only.
Result: > 100 µM

Request: Give TGI for C[n+]1c(-c2ccc(/C=N/NC(=O)C(=O)N/N=C/c3ccc(-c4cn5ccsc5[n+]4C)cc3)cc2)cn2ccsc21 tested on SF-268 CNS.
Result: > 100 µM

Request: Report TGI on SF-268 CNS for this entry: COc1ccc2cc(C(=O)O)ccc2c1OC
Result: > 100 µM

Request: Give the observed TGI of COc1ccc(C(=O)c2cc(OC)c(OC)c(OC)c2)cc1/C=C/C(=O)c1ccc(OC)c(OC)c1 for SF-268 CNS.
Result: > 100 µM

Request: // fetch TGI for COc1ccc(OCc2ccc3nc(-c4ccccc4)c(Cl)nc3c2)cc1 ; system: SF-268 CNS
Result: > 100 µM

Request: Lab note: SF-268 CNS assay, enter TGI for CC1COc2c(N3CCN(C)CC3)c(F)cc3c(=O)c(C(=O)O)cn1c23 (configuration not stated) here
Result: > 100 µM

Request: Identify measured TGI obtained with SF-268 CNS for CCc1n[nH]c(=O)n1/N=C/c1ccc(C)cc1 .
Result: > 100 µM

Request: Name the value of TGI reported for OC1CCOc2ccccc21 (configuration not stated) when tested on SF-268 CNS.
Result: > 100 µM

Request: Quote TGI with test system SF-268 CNS for c1cc2c(c(NC3=NCCO3)c1)CCC2
Result: > 100 µM

Request: Recall the reported TGI of C/C(=C\CCc1ccoc1)CC/C=C(\C)CCCN1CCOCC1 on SF-268 CNS and write it down.
Result: 21.7 µM
